Target: HDM2 (Homo sapiens, UniProt Q00987)
Construct: Thioredoxin (N); made in house; host or cells: E. coli strain BL21(DE3)Rosetta
Sequence (Q00987 17-125): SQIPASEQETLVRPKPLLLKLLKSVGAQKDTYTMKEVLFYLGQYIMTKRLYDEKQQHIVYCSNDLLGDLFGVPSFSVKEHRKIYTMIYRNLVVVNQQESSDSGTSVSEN
Assay: FRET assay (HDM2 inhibition; method not described in this part)
Assay type: binding
Details: Table 2
measuredProperty: IC50 (nM)
Numbers only here, please. The scale is nM.

{"structureSmilesString": "C[C@@H](Nc1nc(C(=O)O)nc2nc(-c3cccc(N(C)C)c3)n(Cc3ccc(C(F)(F)F)cc3)c12)C1CCC1", "dataValue": 6.6}
{"structureSmilesString": "C[C@@H](Nc1nc(C(=O)O)nc2nc(-c3ccc(F)c(Cl)c3)n(Cc3ccc(C(F)(F)F)cc3)c12)C1CCC1", "dataValue": 22.7}
{"structureSmilesString": "C[C@@H](Nc1nc(C(=O)O)nc2nc(-c3cccc(N(C)C)c3)n(Cc3ccc(C(F)(F)F)cc3)c12)C1CC1", "dataValue": 105}
{"structureSmilesString": "C[C@@H](Nc1nc(C(=O)O)nc2nc(-c3ccccc3Cl)n(Cc3ccc(C(F)(F)F)cc3)c12)C1CC1", "dataValue": 98.3}
{"structureSmilesString": "C[C@@H](Nc1nc(C(=O)O)nc2nc(-c3cccc(C(C)(C)C)c3)n(Cc3ccc(C(F)(F)F)cc3)c12)C1CC1", "dataValue": 145}
{"structureSmilesString": "CCc1ccccc1-c1nc2nc(C(=O)O)nc(N[C@H](C)C3CCC3)c2n1Cc1ccc(C(F)(F)F)cc1", "dataValue": 18}

Next compound, please.
Need IC50, item `Cc1cc(C2CC2)ccc1-c1nc2nc(C(=O)O)nc(N[C@H](C)C3CCC3)c2n1Cc1ccc(C(F)(F)F)cc1` 151

====

Molecular target: HDM2 (Homo sapiens, UniProt Q00987)
Construct: Thioredoxin (N); made in house; host or cells: E. coli strain BL21(DE3)Rosetta
Experiment: HDM2 FRET assay (inhibition of binding of FITC labeled p53-pocket peptide to HDM2)
Conditions: Table 10; read-out: FRET IC50
Hi! Could you tag entries with IC50 below 70 nM as Met, and those at or above as Not met? Much appreciated.

{"compound": "C[C@@H](Nc1nc(C(=O)O)nc2nc(C(=O)NCC3CC3)n(Cc3ccc(C(F)(F)F)cc3)c12)C1CCC1", "discreteLabel": "Met"}
{"compound": "CC(Oc1ccccc1)c1nc2nc(C(=O)O)nc(N[C@H](C)C3CCC3)c2n1Cc1ccc(C(F)(F)F)cc1 (stereo partly shown)", "discreteLabel": "Met"}
{"compound": "C[C@@H](Nc1nc(C(=O)O)nc2nc(C3=N[C@H](c4ccccc4)CO3)n(Cc3ccc(C(F)(F)F)cc3)c12)C1CCC1", "discreteLabel": "Met"}
{"compound": "CC(O)c1nc2nc(C(=O)O)nc(N[C@H](C)C3CCC3)c2n1Cc1ccc(C(F)(F)F)cc1 (stereo partly shown)", "discreteLabel": "Not met"}
{"compound": "CC(C)COC(C)c1nc2nc(C(=O)O)nc(N[C@H](C)C3CCC3)c2n1Cc1ccc(C(F)(F)F)cc1 (stereo partly shown)", "discreteLabel": "Met"}

Quick check: IC50 of C=CCN(c1nc(C(=O)O)nc2nc(NC(C)c3ccccn3)n(Cc3ccc(C(F)(F)F)cc3)c12)[C@H](C)C1CCC1 (stereo partly shown) under 70 nM? Met
